measurement_name: melting point

Worked examples follow.
[
  {
    "compound": "Cc1ccc(C)c(/C=C(\\C#N)S(=O)(=O)Cc2ccc(F)cc2)c1",
    "observed_measurement": "122 to 130 °C"
  },
  {
    "compound": "Cc1ccc(/C=C(\\C#N)S(=O)(=O)Cc2ccc(Cl)cc2Cl)cc1C",
    "observed_measurement": "126 to 142 °C"
  },
  {
    "compound": "N#C/C(=C\\c1ccc(F)cc1F)S(=O)(=O)Nc1ccc(F)cc1",
    "observed_measurement": "135 to 139 °C"
  },
  {
    "compound": "N#C/C(=C\\c1ccccc1Cl)S(=O)(=O)Cc1ccccc1",
    "observed_measurement": "155 to 160 °C"
  },
  {
    "compound": "COc1ccc(NS(=O)(=O)/C(C#N)=C/c2ccc(C)c(C)c2)cc1",
    "observed_measurement": "152 to 154 °C"
  }
]

Reported melting point, compound "NC(=O)/C(=C\c1cc(F)c(F)cc1F)S(=O)(=O)Cc1ccc(F)cc1" : ____ 168 to 170 °C

Reported melting point, compound "Cc1ccc(C)c(/C=C(\C#N)S(=O)(=O)Nc2ccc(Br)cc2)c1" : ____ 172 to 174 °C

Reported melting point, compound "Cc1ccc(/C=C(\C#N)S(=O)(=O)Cc2ccc(F)cc2)cc1C" : ____ 122 to 132 °C

---

# key: entry, value: melting point

Worked examples follow.
[
  {
    "compound_structure": "Cc1ccoc1/C=C(\\C#N)S(=O)(=O)Cc1ccccc1",
    "melting point": "118 to 121 °C"
  },
  {
    "compound_structure": "COc1ccc(NS(=O)(=O)/C(C#N)=C/c2ccc(Cl)cc2)cc1",
    "melting point": "95 to 96 °C"
  },
  {
    "compound_structure": "Cc1ccc(/C=C(\\C#N)S(=O)(=O)Cc2ccc(Cl)cc2)s1",
    "melting point": "148 to 152 °C"
  }
]

Next:
Reported melting point, compound "COc1cc(OC)c(OC)cc1/C=C(\C#N)S(=O)(=O)Nc1ccc(F)cc1" : ____ 184 to 186 °C

---

measurement_name: melting point

Worked examples follow.
[
  {
    "compound": "COc1cc(OC)c(/C=C(\\C#N)S(=O)(=O)Nc2ccc(Br)cc2)c(OC)c1 [Example 215]",
    "melting point": "197 to 199 °C"
  },
  {
    "compound": "Cc1ccc(NS(=O)(=O)/C(C#N)=C/c2ccccc2OCc2ccccc2)c(C)c1 [Example 252]",
    "melting point": "177 to 179 °C"
  },
  {
    "compound": "COc1ccc(CS(=O)(=O)/C(C#N)=C/c2ccccc2OC)cc1 [Example 9]",
    "melting point": "143 to 145 °C"
  },
  {
    "compound": "COc1ccc(NS(=O)(=O)/C(C#N)=C/c2cc(Cl)cc(Cl)c2Cl)cc1 [Example 294]",
    "melting point": "180 to 181 °C"
  },
  {
    "compound": "N#C/C(=C\\c1c[nH]c2ccccc12)S(=O)(=O)Cc1ccc(F)cc1 [Example 81]",
    "melting point": "140 to 152 °C"
  },
  {
    "compound": "COc1ccc(S(=O)(=O)/C(=C/c2ccc([N+](=O)[O-])cc2)C(N)=O)cc1 [Example 184]",
    "melting point": "172 to 174 °C"
  },
  {
    "compound": "N#C/C(=C\\c1ccc(Cl)c(Cl)c1)S(=O)(=O)Cc1ccc(Cl)cc1 [Example 52]",
    "melting point": "145 to 155 °C"
  }
]

Next:
Reported melting point, compound N#C/C(=C\c1ccc(O)c(O)c1)S(=O)(=O)Cc1cccc(Br)c1 [Example 116] : ____ 119 to 121 °C

---

measurement_name: melting point

Worked examples follow.
[
  {
    "compound_structure": "COc1ccc(CS(=O)(=O)/C(C#N)=C/c2ccc3oc(=O)[nH]c3c2)cc1",
    "melting point": "210 to 212 °C"
  },
  {
    "compound_structure": "COc1cc(OC)c(/C=C(\\C#N)S(=O)(=O)Cc2ccc(Cl)cc2)c(OC)c1",
    "melting point": "177 to 180 °C"
  },
  {
    "compound_structure": "N#C/C(=C\\c1ccc(Br)cc1)S(=O)(=O)Nc1ccc(F)cc1",
    "melting point": "130 to 132 °C"
  },
  {
    "compound_structure": "N#C/C(=C\\c1ccc(Cl)cc1)S(=O)(=O)Cc1ccc(F)cc1",
    "melting point": "150 to 155 °C"
  },
  {
    "compound_structure": "COc1ccc(CS(=O)(=O)/C(=C/c2ccc(F)cc2)C(N)=O)cc1",
    "melting point": "158 to 161 °C"
  },
  {
    "compound_structure": "COc1cc(OC)c(/C=C(\\C(N)=O)S(=O)(=O)c2ccccc2)c(OC)c1",
    "melting point": "164 to 167 °C"
  }
]

Reported melting point, molecule "CN(C)c1ccc(/C=C(\C#N)S(=O)(=O)Nc2ccc(Br)cc2)cc1" : ____ 190 to 192 °C

Reported melting point, molecule "N#C/C(=C\c1ccccc1Cl)S(=O)(=O)Cc1ccc(Br)cc1" : ____ 143 to 147 °C

Reported melting point, molecule "Cc1ccc(C)c(/C=C(\C#N)S(=O)(=O)Cc2ccc(Cl)cc2Cl)c1" : ____ 142 to 149 °C

---

measurement_name: melting point

Worked examples follow.
[
  {
    "compound": "N#C/C(=C\\c1c[nH]c2ccc(Cl)cc12)S(=O)(=O)Cc1ccc(Cl)cc1Cl [Example 75]",
    "melting point": "282 to 292 °C"
  },
  {
    "compound": "COc1ccc(/C=C(\\C#N)S(=O)(=O)Nc2ccc(C)cc2C)c(OC)c1OC",
    "melting point": "124 to 125 °C"
  },
  {
    "compound": "COc1ccc(CS(=O)(=O)/C(C#N)=C/c2ccc(O)c(O)c2)cc1OC",
    "melting point": "196 to 198 °C"
  }
]

Next:
Reported melting point, compound "COc1cc(OC)c(/C=C(\[N+](=O)[O-])S(=O)(=O)c2ccc(C)cc2)c(OC)c1" : ____ 192 to 194 °C

---

# key: entry, value: melting point

Reported melting point, compound COc1ccc(NS(=O)(=O)/C(C#N)=C/c2cc(OC)cc(OC)c2)cc1 [Example 201] : ____ 167 to 168 °C

---

# key: entry, value: melting point

[
  {
    "compound_structure": "N#C/C(=C\\c1ccccc1OCc1ccccc1)S(=O)(=O)Nc1ccc(F)cc1",
    "melting point": "127 to 129 °C"
  },
  {
    "compound_structure": "Cc1ccc(NS(=O)(=O)/C(C#N)=C/c2ccc(Cl)c(Cl)c2)c(C)c1",
    "melting point": "141 to 143 °C"
  },
  {
    "compound_structure": "N#C/C(=C\\c1c[nH]c2ccc(Br)cc12)S(=O)(=O)Cc1ccc(Cl)cc1Cl",
    "melting point": "264 to 275 °C"
  },
  {
    "compound_structure": "N#C/C(=C\\c1c[nH]c2ccc(Br)cc12)S(=O)(=O)Cc1ccc(F)cc1",
    "melting point": "260 to 270 °C"
  },
  {
    "compound_structure": "COc1ccc(/C=C(\\C#N)S(=O)(=O)Cc2ccc(Cl)cc2)c(OC)c1OC",
    "melting point": "120 to 128 °C"
  },
  {
    "compound_structure": "N#C/C(=C\\c1ccc(O)c([N+](=O)[O-])c1)S(=O)(=O)Nc1ccc(Br)cc1",
    "melting point": "> 250 °C"
  }
]

Reported melting point, compound "COc1ccc(/C=C(\C#N)S(=O)(=O)Cc2ccccc2)cc1OC" : ____ 170 to 174 °C

---

system: K562 (chronic myelogenous leukaemia); assay: Effect on tumor cell lines, viable cell count by trypan blue exclusion (Latham et al.): K562; type: cell-based; settings: K562 chronic myelogenous leukaemia cells, viable cell count 96 hours after treatment
# key: entry, value: IC50

Worked examples follow.
[
  {
    "compound": "COc1ccc(NS(=O)(=O)/C(C#N)=C/c2ccc(SC)cc2)cc1",
    "IC50": "> 100 µM"
  },
  {
    "compound": "N#C/C(=C\\c1ccc(-c2ccccc2)cc1)S(=O)(=O)Cc1ccc(Cl)cc1",
    "IC50": "> 100 µM"
  },
  {
    "compound": "COc1ccc(NS(=O)(=O)/C(C#N)=C/c2ccc(Br)cc2)cc1",
    "IC50": "50 to 100 µM"
  }
]

Reported IC50, compound "N#C/C(=C\c1ccc(-c2ccccc2)cc1)S(=O)(=O)Nc1ccc(Br)cc1" : ____ 10 to 25 µM

Reported IC50, compound "CSc1ccc(/C=C(\C#N)S(=O)(=O)Cc2ccc(F)cc2)cc1" : ____ 25 to 50 µM

Reported IC50, compound "Cc1ccsc1/C=C(\C#N)S(=O)(=O)Cc1ccccc1" : ____ > 100 µM

Reported IC50, compound "Cc1ccc(NS(=O)(=O)/C(C#N)=C/c2ccc(-c3ccccc3)cc2)c(C)c1" : ____ 25 to 50 µM

Reported IC50, compound COc1ccc(NS(=O)(=O)/C(C#N)=C/c2c(OC)cc(OC)cc2OC)cc1 [Example 279] : ____ 10 to 25 µM

Reported IC50, compound "CCOc1cc(/C=C(\C#N)S(=O)(=O)Cc2ccc(Cl)cc2)ccc1O" : ____ 50 to 100 µM
